tested on: 521955-158-R2-J5-PDC complex spheroids, viability; experiment: Anticancer human tumor 521955-158-R2-J5-PDC patient-derived pancreatic carcinoma cell line growth inhibition [RAS]; settings: curve of first compound; second compound 0.003 µM;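 further: compound exposure lasted seven days before the viability read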
pIC50: −log10 of the molar value.
readout: pIC50

Record excerpt, results attached:
compound	pIC50
Nc1ccn(C2OC(CO)C(O)C2(F)F)c(=O)n1 (centres undefined) + CCn1c(-c2cc(N3CCN(C)CC3)cnc2C(C)OC)c2c3cc(ccc31)-c1csc(n1)CC(NC(=O)C1CC1C)C(=O)N1CCCC(N1)C(=O)OCC(C)(C)C2	> 8.50
CCN1CCN(Cc2ccc(Nc3ncc(F)c(-c4cc(F)c5nc(C)n(C(C)C)c5c4)n3)nc2)CC1 + CCn1c(-c2cc(N3CCN(C)CC3)cnc2C(C)OC)c2c3cc(ccc31)-c1csc(n1)CC(NC(=O)C1CC1C)C(=O)N1CCCC(N1)C(=O)OCC(C)(C)C2	> 8.50
CCN1CCN(Cc2ccc(Nc3ncc(F)c(-c4cc(F)c5nc(C)n(C(C)C)c5c4)n3)nc2)CC1 + CCn1c(-c2cccnc2C(C)OC)c2c3cc(ccc31)N1CCOC(CC(NC(=O)C(C(C)C)N(C)C(=O)C3(F)CCN(C(=O)C#CC(C)(C)N(C)C)CC3)C(=O)N3CCCC(N3)C(=O)OCC(C)(C)C2)C1	< 6.00

## Task Quick check: pIC50 of NC1c2ccccc2OC12CCN(c1cnc3c(N4CCCc5ncccc54)n[nH]c3n1)CC2 (centres undefined) + CCn1c(-c2cc(N3CCN(C)CC3)cnc2C(C)OC)c2c3cc(ccc31)-c1csc(n1)CC(NC(=O)C1CC1C)C(=O)N1CCCC(N1)C(=O)OCC(C)(C)C2 ?
## Result > 7.50
